Entry source: PubChem BioAssay (NCI)

# System: DU-145 prostate
# protocol_summary: NCI tumour cell line growth inhibition, 48 h; in the data active = GI50 below about 0.43 µM; inactive = the rest
Would you mind answering with one of these outcomes? Y (active), N (inactive)

State the result this test recorded for CCCCCCCCCCCCCCCC[N+]1(C)CCOCC1 .
N

State the result this test recorded for CN(C)c1ccc(-c2ccc(-c3ccc(C(=N)N)cc3)s2)cc1 .
N

State the result this test recorded for Nc1ccc(/C=C/C(=O)NCc2cc3cc(-c4ccc(C(=O)N5CCC(F)(F)CC5)cc4)cc(-c4ccc(F)cc4)c3o2)cn1 .
N

====

# Tested on: HS 578T breast
# protocol_summary: NCI tumour cell line growth inhibition, 48 h
Some compounds, each annotated with its measured GI50.

// worked examples, GI50 included
>>> reported_measurement("Nc1ccc(/C=C/C(=O)NCc2cc3cc(-c4ccc(C(=O)N5CCC(F)(F)CC5)cc4)cc(-c4ccc(F)cc4)c3o2)cn1")
"> 100 µM"
>>> reported_measurement("COc1cnc2c(c1)C(=O)c1c-2n(CCCN2CCN(C)CC2)c(=O)c2cc([N+](=O)[O-])ccc12")
"14.5 µM"

What GI50 value was documented for this compound, O=C1OCC2=C1C(c1ccccc1)c1cc3c(cc1N2CCO)OCO3 (stereo not given) ?
2.72 µM

What GI50 value was documented for this compound, COc1cc(NCCCCCCCNC(C)C)c2nccc(C)c2c1 ?
17.4 µM
